assay: Ratio of drug level in tumor to blood in KM mouse xenografted with human HCT-116 cells measured after 1 hr block group; type: ADME, tissue-based
endpoint name: Kp at 1 h

# input Which Kp at 1 h is reported for this compound? "[18F]CCOCCOCCOc1nc(-c2ccc(Br)cc2)nc2ccccc12"
# output 1.01

---

test: Drug distribution in KM mouse pancreas xenografted with human HCT-116 cells measured after 1 hr; format: ADME, tissue-based; details: read-out: Drug uptake
endpoint name: tissue uptake at 1 h (%ID/g)
Numbers only, in %ID/g.

# input Recorded tissue uptake at 1 h of "[18F]CCOCCOCCOc1nc(-c2ccc(Br)cc2)nc2ccccc12" , please.
# output 8.21

---

assay: Drug distribution in KM mouse muscle xenografted with human HCT-116 cells measured after 1 hr block group; type: ADME, tissue-based, Muscle tissue; conditions: read-out: Drug uptake
endpoint name: tissue uptake at 1 h (%ID/g)
Answers are plain numbers, in %ID/g.

# input I have this compound here, "[18F]CCOCCOCCOc1nc(-c2ccc(Br)cc2)nc2ccccc12" , and I need its recorded tissue uptake at 1 h.
# output 4.2

---

assay: Drug distribution in KM mouse blood xenografted with human HCT-116 cells measured after 1 hr block group; assay type: ADME, tissue-based; details: read-out: Drug uptake
endpoint name: tissue uptake at 1 h (%ID/g)
Answers are plain numbers, in %ID/g.

# input Record request: tissue uptake at 1 h value, item "[18F]CCOCCOCCOc1nc(-c2ccc(Br)cc2)nc2ccccc12"
# output 3.3

Attribution: ChEMBL document CHEMBL5329194
